Origin of measurements: paper PMC10663500

# target-desc: T1, mouse programmed cell death protein 1 Fc fusion protein (mPD-1-Fc), mPD-1 C60S (aa 25-167) (Mus musculus, UniProt Q02242, stabilised)
# T1 construct: not cleaved; source: Expi293F, purified (Protein A, SEC; dimeric fraction); not shown: Fc (human), C-terminal, kept
# assay: SPR; Carterra LSA; Fab from the ammonium sulfate precipitate of the culture supernatant immobilised on a NiHC200M chip; hPD-1 (1-1024 nM) or mPD-1-Fc (4-1024 nM) as analyte, fourfold dilution series, no regeneration; HBS-EP pH 7.4, 25 °C; medians over the spots of a construct, KD = koff/kon
# experimental-context: one partner purified
metric: kon (M⁻¹ s⁻¹)
Numbers only; they are read as M⁻¹ s⁻¹.

Query: kon; subject: toripalimab Fab L.G34A (Fab, V domains shown, as the heavy chain of Sm3; light chain of Sm3 with this change; numbers count from the chain's first residue; source: Brevibacillus, culture supernatant (ammonium sulfate precipitate); not shown: 6xHis, C-terminal, kept; 6xHN, C-terminal, kept) VH: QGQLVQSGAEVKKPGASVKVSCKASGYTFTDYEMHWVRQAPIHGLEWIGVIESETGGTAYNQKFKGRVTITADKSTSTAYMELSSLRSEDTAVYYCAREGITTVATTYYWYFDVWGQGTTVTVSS VL: DVVMTQSPLSLPVTLGQPASISCRSSQSIVHSNANTYLEWYLQKPGQSPQLLIYKVSNRFSGVPDRFSGSGSGTDFTLKISRVEAEDVGVYYCFQGSHVPLTFGQGTKLEIK
47500

Query: kon; subject: toripalimab Fab L.N35A (Fab, V domains shown, as the heavy chain of Sm3; light chain of Sm3 with this change; numbers count from the chain's first residue; source: Brevibacillus, culture supernatant (ammonium sulfate precipitate); not shown: 6xHis, C-terminal, kept; 6xHN, C-terminal, kept) VH: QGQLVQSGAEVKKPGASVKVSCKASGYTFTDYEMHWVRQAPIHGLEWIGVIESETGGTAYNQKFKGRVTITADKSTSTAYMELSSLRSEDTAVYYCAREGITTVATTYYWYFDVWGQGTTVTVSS VL: DVVMTQSPLSLPVTLGQPASISCRSSQSIVHSNGATYLEWYLQKPGQSPQLLIYKVSNRFSGVPDRFSGSGSGTDFTLKISRVEAEDVGVYYCFQGSHVPLTFGQGTKLEIK
41200

Query: kon; subject: toripalimab Fab H.G56Y (Fab, V domains shown, heavy chain of Sm3 with this change; numbers count from the chain's first residue; as the light chain of Sm3; source: Brevibacillus, culture supernatant (ammonium sulfate precipitate); not shown: 6xHis, C-terminal, kept; 6xHN, C-terminal, kept) VH: QGQLVQSGAEVKKPGASVKVSCKASGYTFTDYEMHWVRQAPIHGLEWIGVIESETYGTAYNQKFKGRVTITADKSTSTAYMELSSLRSEDTAVYYCAREGITTVATTYYWYFDVWGQGTTVTVSS VL: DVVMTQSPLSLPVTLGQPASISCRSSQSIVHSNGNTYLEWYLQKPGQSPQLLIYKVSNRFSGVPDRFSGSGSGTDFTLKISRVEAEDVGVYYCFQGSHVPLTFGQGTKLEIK
34700

Query: kon; subject: toripalimab Fab H.A59Y (Fab, V domains shown, heavy chain of Sm3 with this change; numbers count from the chain's first residue; as the light chain of Sm3; source: Brevibacillus, culture supernatant (ammonium sulfate precipitate); not shown: 6xHis, C-terminal, kept; 6xHN, C-terminal, kept) VH: QGQLVQSGAEVKKPGASVKVSCKASGYTFTDYEMHWVRQAPIHGLEWIGVIESETGGTYYNQKFKGRVTITADKSTSTAYMELSSLRSEDTAVYYCAREGITTVATTYYWYFDVWGQGTTVTVSS VL: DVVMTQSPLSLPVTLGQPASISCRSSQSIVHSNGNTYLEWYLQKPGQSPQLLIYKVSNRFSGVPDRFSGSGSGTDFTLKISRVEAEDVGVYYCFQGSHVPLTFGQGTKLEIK
39200

Query: kon; subject: toripalimab Fab L.V99I (Fab, V domains shown, as the heavy chain of Sm3; light chain of Sm3 with this change; numbers count from the chain's first residue; source: Brevibacillus, culture supernatant (ammonium sulfate precipitate); not shown: 6xHis, C-terminal, kept; 6xHN, C-terminal, kept) VH: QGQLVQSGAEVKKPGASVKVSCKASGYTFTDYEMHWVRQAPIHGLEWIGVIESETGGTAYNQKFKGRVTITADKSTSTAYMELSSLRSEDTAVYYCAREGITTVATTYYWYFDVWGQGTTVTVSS VL: DVVMTQSPLSLPVTLGQPASISCRSSQSIVHSNGNTYLEWYLQKPGQSPQLLIYKVSNRFSGVPDRFSGSGSGTDFTLKISRVEAEDVGVYYCFQGSHIPLTFGQGTKLEIK
48500
